Molecular target: D(2) dopamine receptor (Rattus norvegicus, UniProt P61169)
Sequence (P61169 whole entry): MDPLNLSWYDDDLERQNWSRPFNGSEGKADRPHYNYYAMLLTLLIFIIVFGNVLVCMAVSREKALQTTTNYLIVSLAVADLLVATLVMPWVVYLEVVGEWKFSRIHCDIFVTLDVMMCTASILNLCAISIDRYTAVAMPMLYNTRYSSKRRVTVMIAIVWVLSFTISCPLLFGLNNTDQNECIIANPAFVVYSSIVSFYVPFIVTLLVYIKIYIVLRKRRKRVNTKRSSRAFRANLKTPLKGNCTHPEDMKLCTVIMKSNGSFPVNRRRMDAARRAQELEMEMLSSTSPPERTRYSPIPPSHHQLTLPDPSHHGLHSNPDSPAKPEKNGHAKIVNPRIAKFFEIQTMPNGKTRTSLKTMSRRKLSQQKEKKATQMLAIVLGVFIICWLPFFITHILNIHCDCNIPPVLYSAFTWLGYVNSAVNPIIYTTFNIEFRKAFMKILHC
Assay: Inhibitory concentration against radioligand [3H]spiperone binding to rat striatal Dopamine receptor D2
metric: IC50

// O[C@H](CCCN1CCN(c2ncc(F)cn2)CC1)c1ccc(F)cc1 : IC50 value = > 1000 nM

###

Reported ED50 by item:
Species: Rattus norvegicus
Experiment: Effective peroral dose for inhibition of conditioned avoidance response in rats
Type: functional
Conditions: po
The answer is to be given in mg/kg; state only the numeric part.

Worked examples, 3 compounds total:
{"columns": ["compound", "ED50 / mg/kg"],
 "data": [
  ["N#CC(CCCN1CCN(c2ncc(F)cn2)CC1)c1ccc(F)cc1 (stereo unspecified)", 19.8],
  ["OC(CCCN1CCN(c2ncc(Cl)cn2)CC1)c1ccc(F)cc1 (stereo unspecified)", 87.1],
  ["O=C(CCCN1CCC(O)(c2ccc(Cl)cc2)CC1)c1ccc(F)cc1 [HALOPERIDOL]", 2.8]
]}

--- query ---
// OC(CCCN1CCN(c2ncccn2)CC1)c1ccc(F)cc1 (stereo unspecified) : ED50 value = 25

###

Target: Sigma non-opioid intracellular receptor 1 (Rattus norvegicus, UniProt Q9R0C9)
Sequence (Q9R0C9 whole entry): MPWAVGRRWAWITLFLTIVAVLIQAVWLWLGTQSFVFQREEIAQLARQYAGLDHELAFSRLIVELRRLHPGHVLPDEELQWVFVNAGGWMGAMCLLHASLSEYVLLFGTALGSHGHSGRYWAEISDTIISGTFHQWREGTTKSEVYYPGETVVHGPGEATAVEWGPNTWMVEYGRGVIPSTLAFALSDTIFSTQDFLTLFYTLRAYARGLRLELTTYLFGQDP
Assay: Displacement of (+)-[3H]-3-PPP from rat cortical sigma site
metric: IC50 (nM)
The answer is to be given in nM; state only the numeric part.

Worked examples, 2 molecules total:
{"columns": ["molecule", "metric", "quantitative_readout"],
 "data": [
  ["O=C(CCCN1CCN(c2ncccn2)CC1)c1ccc(F)cc1", "IC50", 430],
  ["CSc1nc(N2CCN(CCCC(O)c3ccc(F)cc3)CC2)ncc1F (stereo not given)", "IC50", 26]
]}

// OC(CCN1CCN(c2ncc(F)cn2)CC1)c1ccc(F)cc1 (stereo not given) : IC50 value = 160

// CSc1ccc2c(c1)N(CCC1CCCCN1C)c1ccccc1S2 (stereo not given) [THIORIDAZINE] : IC50 value = 750

###

Biological target: D(2) dopamine receptor (Rattus norvegicus, UniProt P61169)
Test: In vitro inhibitory against radioligand [3H]spiperone binding to rat striatal Dopamine receptor D2
Binary label based on IC50 with cut-off 1000 nM: below gives t, not below gives f.

Example entries and their recorded answers appear below.
{"columns": ["molecule", "group_label"],
 "data": [
  ["OC(CCN1CCN(c2ncc(F)cn2)CC1)c1ccc(F)cc1 (stereo unspecified)", "f"],
  ["OC(CCCN1CCN(c2ncccn2)CC1)c1ccc(F)cc1 (stereo unspecified)", "f"],
  ["CSc1nc(N2CCN(CCCC(=O)c3ccc(F)cc3)CC2)ncc1F", "t"],
  ["N#CC(CCCN1CCN(c2ncc(F)cn2)CC1)c1ccc(F)cc1 (stereo unspecified)", "f"],
  ["Oc1nc(N2CCN(CCCC(O)c3ccc(F)cc3)CC2)ncc1F (stereo unspecified)", "f"],
  ["CCC(O)(CCCN1CCN(c2ncccn2)CC1)c1ccc(F)cc1 (stereo unspecified)", "t"]
]}

Input: Does this molecule meet the criterion IC50 < 1000 nM? OC(CCCN1CCN(c2ncc(Br)cn2)CC1)c1ccc(F)cc1 (stereo unspecified)
Output: f

Input: Does this molecule meet the criterion IC50 < 1000 nM? CCC(O)(CCCN1CCN(c2ncc(F)cn2)CC1)c1ccc(F)cc1 (stereo unspecified)
Output: f

Input: Does this molecule meet the criterion IC50 < 1000 nM? NC(CCCN1CCN(c2ncc(F)cn2)CC1)c1ccc(F)cc1 (stereo unspecified)
Output: f

Input: Does this molecule meet the criterion IC50 < 1000 nM? O=C(CCCN1CCN(c2ncccn2)CC1)c1ccc(F)cc1
Output: t

Input: Does this molecule meet the criterion IC50 < 1000 nM? Fc1ccc(/C=C(\CCN2CCN(c3ncc(F)cn3)CC2)c2ccc(F)cc2)cc1
Output: f
